System name: D128N mutant mouse delta opioid receptor (Mus musculus, UniProt P32300, D128N)
Construct: expressed in transfected cells; host or cells: COS-7 (transient, pCMV6c)
Sequence (P32300 whole entry D128N): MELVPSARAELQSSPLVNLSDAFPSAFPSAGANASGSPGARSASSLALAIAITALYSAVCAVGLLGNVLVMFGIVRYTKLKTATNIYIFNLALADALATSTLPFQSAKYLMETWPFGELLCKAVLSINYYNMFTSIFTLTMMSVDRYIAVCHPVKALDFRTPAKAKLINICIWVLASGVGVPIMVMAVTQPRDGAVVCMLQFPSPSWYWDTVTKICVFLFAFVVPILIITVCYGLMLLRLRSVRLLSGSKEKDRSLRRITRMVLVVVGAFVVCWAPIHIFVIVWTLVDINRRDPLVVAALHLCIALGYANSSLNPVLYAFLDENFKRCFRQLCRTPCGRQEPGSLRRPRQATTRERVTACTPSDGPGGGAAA
Test name: biochemical
Format: binding
Measurement setup: read-out: Potencies of Agonists to Bind, D128N mutant (Ki values in nM)
Measurement type: Ki (nM)
The answer is to be given in nM; state only the numeric part.

Input line: Entry "CN1CC[C@]23c4c5ccc(O)c4O[C@H]2C(=O)C2(Cc4ccccc4C2)C[C@@]3(O)[C@H]1C5" has what Ki?
Output line: 1220

* * *

System name: MOP2 (Mus musculus, UniProt P35377)
Construct: expressed in transfected cells; host or cells: COS-7 (transient)
Sequence (P35377 whole entry): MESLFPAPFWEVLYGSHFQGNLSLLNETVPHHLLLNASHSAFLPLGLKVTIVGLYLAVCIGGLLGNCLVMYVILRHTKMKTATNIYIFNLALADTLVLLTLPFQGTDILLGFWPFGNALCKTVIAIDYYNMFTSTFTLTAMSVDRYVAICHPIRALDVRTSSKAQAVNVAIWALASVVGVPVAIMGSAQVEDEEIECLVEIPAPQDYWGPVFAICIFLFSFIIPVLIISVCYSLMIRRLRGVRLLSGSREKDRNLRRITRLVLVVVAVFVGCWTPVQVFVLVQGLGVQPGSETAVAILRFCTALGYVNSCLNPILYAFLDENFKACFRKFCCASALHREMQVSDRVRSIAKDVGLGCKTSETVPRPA
Type: cell-based
Measurement type: Effect on forskolin-stimulated cAMP formation, MOP2

| Molecule | Value observed |
| --- | --- |
| CN1CC[C@]23CCCC[C@H]2[C@H]1Cc1ccc(O)cc13 | no effect |
| CN1CC[C@]23c4c5ccc(O)c4O[C@H]2[C@@H](O)C=C[C@H]3[C@H]1C5 | no effect |
| CCC12CCN(CC3(O)CC3)C(Cc3ccc(O)cc31)C2(C)C (racemic) | no effect |
| CCC(=O)C(CC(C)N(C)C)(c1ccccc1)c1ccccc1 (stereo not drawn) | no effect |
| CC[C@]12CCN(CC3CC3)[C@H](C(=O)c3ccc(O)cc31)[C@@H]2C | no effect |

Here is another molecule to look at.
Input line: Entry "COc1ccc2c3c1O[C@H]1[C@@H](O)C=C[C@H]4[C@@H](C2)N(C)CC[C@@]341" has what Effect on forskolin-stimulated cAMP formation, MOP2?
Output line: no effect
